These data points were gathered from PubChem BioAssay AID2060893.

Please provide measured pIC50 for the entries that follow.
# Tested on: K86415-001-R-J1-PDC complex spheroids, viability
# Measurement Notes: Anticancer human tumor K86415-001-R-J1-PDC patient-derived lung adenocarcinoma cell line growth inhibition [RAS]
# Condition: curve of first compound; second compound 3.16 µM
pIC50: −log10 of the molar value.

Answer with the recorded pIC50 for the compound listed here: CCC(CC)c1cc(NC2CCC(N)C2)n2nccc2n1 (stereo not drawn) + C#Cc1c(F)ccc2cc(O)cc(-c3ncc4c(N5CC6CCC(C5)N6)nc(OCC56CCCN5CC(F)C6)nc4c3F)c12
5.98

Give the measured pIC50 for Cc1nc(N2CCC3(CC2)COC(C)C3N)c(CO)nc1Sc1ccnc(N)c1Cl (stereo not drawn) + C#Cc1c(F)ccc2cc(O)cc(-c3ncc4c(N5CC6CCC(C5)N6)nc(OCC56CCCN5CC(F)C6)nc4c3F)c12
> 7.50

// fetch pIC50 given entry CC1(C)CCC(Nc2ncc(C(F)(F)F)c(-c3c[nH]c4c(P(C)(C)=O)c(C#N)ccc34)n2)CN1 (stereo not drawn) + C#Cc1c(F)ccc2cc(O)cc(-c3ncc4c(N5CC6CCC(C5)N6)nc(OCC56CCCN5CC(F)C6)nc4c3F)c12
< 6.52

----------
# Tested on: K86415-001-R-J1-PDC complex spheroids, viability
# Measurement Notes: Anticancer human tumor K86415-001-R-J1-PDC cell line growth inhibition [RAS];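 note: spheroids exposed to agents for seven days before readout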
# Condition: second compound 0.0949 µM; first compound 1 µM; stronger effect = lower value
Recorded Endpoint: viability, T/C (%)
The figure you give is taken to be in %; do not add the unit.

Name the recorded viability, T/C of the compound listed here: CC1(O)CCCC1n1c(=O)c(C(F)F)cc2cnc(NC3CCN(S(C)(=O)=O)CC3)nc21 (stereo unspecified) + CCn1c(-c2cc(N3CCN(C)CC3)cnc2C(C)OC)c2c3cc(ccc31)-c1csc(n1)CC(NC(=O)C1CC1C)C(=O)N1CCCC(N1)C(=O)OCC(C)(C)C2
5.15

Indicate its recorded viability, T/C; the compound in question is C=CC(=O)Nc1cc(Nc2nccc(-c3cn(C)c4ccccc34)n2)c(OC)cc1N(C)CCN(C)C + CCn1c(-c2cccnc2C(C)OC)c2c3cc(ccc31)N1CCOC(CC(NC(=O)C(C(C)C)N(C)C(=O)C3(F)CCN(C(=O)C#CC(C)(C)N(C)C)CC3)C(=O)N3CCCC(N3)C(=O)OCC(C)(C)C2)C1
5.3

Report viability, T/C for Cc1nc(N2CCC3(CC2)COC(C)C3N)c(CO)nc1Sc1ccnc(N)c1Cl (stereo unspecified) + CCn1c(-c2cc(N3CCN(C)CC3)cnc2C(C)OC)c2c3cc(ccc31)-c1csc(n1)CC(NC(=O)C1CC1C)C(=O)N1CCCC(N1)C(=O)OCC(C)(C)C2
3.97

Answer with the recorded viability, T/C of C[C@@H](NC(=O)c1ncnc(N)c1Cl)c1ncc(C(=O)Nc2cc(C(F)(F)F)c(Cl)cn2)s1 + CCn1c(-c2cc(N3CCN(C)CC3)cnc2C(C)OC)c2c3cc(ccc31)-c1csc(n1)CC(NC(=O)C1CC1C)C(=O)N1CCCC(N1)C(=O)OCC(C)(C)C2 only.
4.04

Identify the reported viability, T/C for the following entry. C=CC(=O)N1CCN(c2nc(OCC3CCCN3C)nc3c(F)c(-c4nc(N)cc(C)c4C(F)(F)F)c(Cl)cc23)C(C)C1 (stereo unspecified) + CCn1c(-c2cc(N3CCN(C)CC3)cnc2C(C)OC)c2c3cc(ccc31)-c1csc(n1)CC(NC(=O)C1CC1C)C(=O)N1CCCC(N1)C(=O)OCC(C)(C)C2
3.4

Provide viability, T/C value for the following compound: CC(=O)OC12COC1CC(O)C1(C)C(=O)C(O)C3=C(C)C(OC(=O)C(O)C(NC(=O)OC(C)(C)C)c4ccccc4)CC(O)(C(OC(=O)c4ccccc4)C21)C3(C)C (stereo unspecified) + CCn1c(-c2cccnc2C(C)OC)c2c3cc(ccc31)N1CCOC(CC(NC(=O)C(C(C)C)N(C)C(=O)C3(F)CCN(C(=O)C#CC(C)(C)N(C)C)CC3)C(=O)N3CCCC(N3)C(=O)OCC(C)(C)C2)C1
10.8

Quickly give me recorded viability, T/C for CC(C)NCC(C(=O)N1CCN(c2ncnc3c2C(C)CC3O)CC1)c1ccc(Cl)cc1 (stereo unspecified) + CCn1c(-c2cccnc2C(C)OC)c2c3cc(ccc31)N1CCOC(CC(NC(=O)C(C(C)C)N(C)C(=O)C3(F)CCN(C(=O)C#CC(C)(C)N(C)C)CC3)C(=O)N3CCCC(N3)C(=O)OCC(C)(C)C2)C1
10

Give recorded viability, T/C. CC(Nc1ccc2c(c1)OCCn1cc(N3C(=O)OCC3C(F)F)nc1-2)C(N)=O (stereo unspecified) + CCn1c(-c2cc(N3CCN(C)CC3)cnc2C(C)OC)c2c3cc(ccc31)-c1csc(n1)CC(NC(=O)C1CC1C)C(=O)N1CCCC(N1)C(=O)OCC(C)(C)C2
0.62

Please list viability, T/C recorded for the compound CCC(CC)c1cc(NC2CCC(N)C2)n2nccc2n1 (stereo unspecified) + CCn1c(-c2cc(N3CCN(C)CC3)cnc2C(C)OC)c2c3cc(ccc31)-c1csc(n1)CC(NC(=O)C1CC1C)C(=O)N1CCCC(N1)C(=O)OCC(C)(C)C2
2.72

Please look at this compound and report its viability, T/C: CC(C)NCC(C(=O)N1CCN(c2ncnc3c2C(C)CC3O)CC1)c1ccc(Cl)cc1 (stereo unspecified) + CCn1c(-c2cc(N3CCN(C)CC3)cnc2C(C)OC)c2c3cc(ccc31)-c1csc(n1)CC(NC(=O)C1CC1C)C(=O)N1CCCC(N1)C(=O)OCC(C)(C)C2
0.75

Query viability, T/C for CCC(CC)c1cc(NC2CCC(N)C2)n2nccc2n1 (stereo unspecified) + CCn1c(-c2cccnc2C(C)OC)c2c3cc(ccc31)N1CCOC(CC(NC(=O)C(C(C)C)N(C)C(=O)C3(F)CCN(C(=O)C#CC(C)(C)N(C)C)CC3)C(=O)N3CCCC(N3)C(=O)OCC(C)(C)C2)C1
13.9
